# kon annotations
Target: T1, recombinant rat CTGF protein (R&D Systems) (rat, UniProt Q9R1E9 25-347)
T1 construct: Bought; also called rCTGF
T1 sequence: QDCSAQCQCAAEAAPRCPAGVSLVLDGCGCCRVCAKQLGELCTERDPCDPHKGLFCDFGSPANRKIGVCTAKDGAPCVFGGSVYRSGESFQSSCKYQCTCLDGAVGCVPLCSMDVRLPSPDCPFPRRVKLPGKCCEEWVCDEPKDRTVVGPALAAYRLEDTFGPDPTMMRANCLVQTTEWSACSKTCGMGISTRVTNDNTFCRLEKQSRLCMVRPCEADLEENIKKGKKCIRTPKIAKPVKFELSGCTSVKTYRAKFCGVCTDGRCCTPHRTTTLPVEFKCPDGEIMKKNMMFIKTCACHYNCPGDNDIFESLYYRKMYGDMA
Experiment: SPR (Biacore)

binder: lipocalin mutein of SEQ ID NO: 10 (designed binder, also called hNGAL mutein; not shown: C-terminal His-tag) QDSTSDLIPAPPLSKVPLQQNFQDNQFQGKWYVVGLAGNAILREDKQPAKMFATIYELKEDKSYDVTSVRFEAKSCSYTIKTFVPGSQPGEFTAGNIKSAPGQTSTLVRVVSTNYNQHAMVFWKSVAGTRESFNIALYGRTKELTSELKENFIRFSKSLGLPENHIVFPVPIDQCIDG
kon / M⁻¹ s⁻¹: 88800
//
binder: lipocalin mutein of SEQ ID NO: 3 (designed binder, Parent hNGAL mutein; also called hNGAL mutein) QDSTSDLIPAPPLSKVPLQQNFQDNQFHGKWYVVGRAGNNRLREDKDPPKMWATIYELKEDKSYNVTHVHFMTKKCRYIIDTFVPGSQPGEFTLGAIKSGPGMTSPLVRIVSTNYNQHAMVFFKWVNQNREWFTITLYGRTKELTSELKENFIRFSKSLGLPENHIVFPVPIDQCIDGSAWSHPQFEK
kon / M⁻¹ s⁻¹: 297000
//
binder: lipocalin mutein of SEQ ID NO: 31 (designed binder, also called hNGAL mutein; not shown: C-terminal His-tag) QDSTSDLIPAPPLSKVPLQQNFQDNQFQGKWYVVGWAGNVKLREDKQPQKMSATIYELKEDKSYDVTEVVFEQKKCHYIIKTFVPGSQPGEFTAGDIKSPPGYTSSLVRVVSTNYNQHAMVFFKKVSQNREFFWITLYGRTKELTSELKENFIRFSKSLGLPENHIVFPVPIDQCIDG
kon / M⁻¹ s⁻¹: 223000
